Quick list: IC50 per entry.
# Measurement Target: human IL-23R (Homo sapiens, UniProt Q5VWK5)
# Test Method Notes: biochemical
*1 amine or outer side, *2 acyl side, *3 side chain or, on linkers, in order; H or OH if unused. Where a SMILES comes first, the peptide text is derived from it. Bridges are numbered along the chain shown (N, C = ends). [ ]: non-standard residue; d: D form. X17 = O=C(C[C@@H](CCCN[*:3])N[*:2])[*:1]; 2Nal = N[C@@H](Cc1ccc2ccccc2c1)C(=O)O; AEF = NCCOc1ccc(C[C@H](N)C(=O)O)cc1; 3Pal = N[C@@H](Cc1cccnc1)C(=O)O; αMeL = CC(C)C[C@](C)(N)C(=O)O; Dab = NCC[C@H](N)C(=O)O
Endpoint Name: IC50 (nM)

INSERT INTO results (compound, endpoint_value) VALUES
  ('CC(C)C[C@]1(C)NC(=O)[C@H](Cc2ccc3ccccc3c2)NC(=O)[C@H](Cc2ccc(OCCN)cc2)NC(=O)[C@@H]2CCNC(=O)CC[C@H](NC(=O)[C@H](CO)NC(=O)Cc3ccc(cc3)CNC(=O)CC[C@@H](C(=O)N[C@@H](CCN)C(=O)N[C@@H](Cc3cccnc3)C(N)=O)NC1=O)C(=O)N[C@@H](Cc1c[nH]c3ccccc13)C(=O)N[C@@H](CCC(N)=O)C(=O)N2 [Ref 122, reference compound]', 0.0066),
  ('CC(C)C[C@]1(C)NC(=O)[C@H](Cc2ccc3ccccc3c2)NC(=O)[C@H](Cc2ccc(OCCN)cc2)NC(=O)[C@@H]2CC(=O)N[C@H](CCCNC(=O)CC[C@@H](C(=O)N[C@@H](CCN)C(=O)N[C@@H](Cc3cccnc3)C(N)=O)NC1=O)CC(=O)N[C@@H]([C@@H](C)O)C(=O)N[C@@H](Cc1c[nH]c3ccccc13)C(=O)N[C@@H](CCC(N)=O)C(=O)N2 [Compound 13] (TWQD[AEF][2Nal][αMeL]E[Dab][3Pal]-NH2; linker N-4-8 via X17)', 1.4),
  ('CNC(=O)[C@H](Cc1cccnc1)NC(=O)[C@H](Cc1cccnc1)NC(=O)[C@@H]1CCC(=O)NCCCC[C@@H]2NC(=O)CC[C@H](NC(=O)[C@H](CCC(N)=O)NC(=O)[C@H](Cc3c[nH]c4ccccc34)NC(=O)CCNC2=O)C(=O)N[C@@H](Cc2ccc(OCCN)cc2)C(=O)N[C@@H](Cc2ccc3ccccc3c2)C(=O)N[C@@](C)(CC(C)C)C(=O)N1 [Compound 87]', 0.039);

The reported numbers originate from patent EP4471048A1.
